Target: MMP-3 (Homo sapiens, UniProt P08254)
Construct: made in house; host or cells: CHO cells
Sequence (P08254 100-477): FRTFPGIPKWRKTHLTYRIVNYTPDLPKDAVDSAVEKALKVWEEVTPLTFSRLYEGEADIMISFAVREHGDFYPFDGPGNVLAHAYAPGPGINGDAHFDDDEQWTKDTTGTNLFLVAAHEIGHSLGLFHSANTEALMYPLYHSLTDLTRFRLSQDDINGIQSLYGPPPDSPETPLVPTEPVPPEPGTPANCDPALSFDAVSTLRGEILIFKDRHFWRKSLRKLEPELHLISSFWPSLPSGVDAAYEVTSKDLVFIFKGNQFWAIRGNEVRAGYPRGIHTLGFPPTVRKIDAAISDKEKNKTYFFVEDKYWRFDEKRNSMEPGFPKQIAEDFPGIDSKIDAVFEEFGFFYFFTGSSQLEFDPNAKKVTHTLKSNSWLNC
Experiment: P218 quenched fluorescence assay (MMP Microfluorometric Profiling Assay), MMP-3
Assay type: biochemical
Settings: inhibitor at 5 µM; given as I = x %
Description: The P218 quenched fluorescence assay (Microfluorometric Profiling Assay) is a modification of that originally described by C. G. Knight et al., FEBS Letters, 296, 263-266 (1992) for a related substrate and a variety of matrix metalloproteinases (MMPs) in cuvettes. The assay was run with each exemplary compound of the invention and the three MMPs, MMP-3, MMP-9 and MMP-2, analyzed in parallel, adapted as follows for a 96-well microtitre plate and a Hamilton AT® workstation. […]
Quick reference for inhibition at 5 µM among some molecules
Record the value in %, omitting the unit from your answer.

Worked examples, 2 molecules total:
[[record]]
molecule = "O=C(CC(CCN1C(=O)c2ccccc2C1=O)C(=O)O)c1ccc(Br)cc1 (centres unmarked) [Compound B, reference compound]"
uom = "%"
quantitative_readout = 46

[[record]]
molecule = "CCCCCCCCCCCCCCOc1ccc(C(=O)CC(CCN2C(=O)c3ccccc3C2=O)C(=O)O)cc1 (centres unmarked) [Compound F, reference compound]"
uom = "%"
quantitative_readout = 18


Incoming: Could you tell me which inhibition at 5 µM is on file for COc1ccc(C(=O)CC(CCN2C(=O)c3ccccc3C2=O)C(=O)O)cc1 (centres unmarked) [Compound G, reference compound] ?
Outgoing: 29

Incoming: Could you tell me which inhibition at 5 µM is on file for O=C(CC(CCCc1ccccc1)C(=O)O)c1ccc(C#CCCCCO)cc1 (centres unmarked) ?
Outgoing: 43

Incoming: Could you tell me which inhibition at 5 µM is on file for O=C(CC(CCCc1ccccc1)C(=O)O)c1ccccc1 (centres unmarked) [Compound C, reference compound] ?
Outgoing: 20
